Overview of reported pIC50 across a group of compounds:
system: PC-3; test: Antiproliferative activity against human paclitaxel-resistant PC3 cells by sulforhodamine B assay; type: functional, cell-based
pIC50: −log10 of the molar value.

smilesRepr	pIC50
CC(=O)O[C@H]1C(=O)[C@@]2(C)[C@H]([C@H](OC(=O)c3ccccc3)[C@]3(O)C[C@H](OC(=O)[C@H](O)[C@@H](NC(=O)c4ccccc4)c4ccccc4)C(C)=C1C3(C)C)[C@]1(OC(C)=O)CO[C@@H]1C[C@@H]2O	6.73
COc1cc(C(=O)c2cn(C)c(-c3ccc(C)cc3)n2)cc(OC)c1OC	7.72
COc1cc(C(=O)c2c[nH]c(-c3ccc(Br)cc3)n2)cc(OC)c1OC	7.80
